- Method: physchem
- Experimental setup: pH 7.4, aqueous buffer, thermodynamic from solid, Thermodynamic solubility (mg/mL) pH 7.4, PBS pH 7.4; 24 h room temperature; test compound concentration 5 mg/mL
Metric name: solubility thermodynamic at 24 h

Item under review: C[C@]12CC[C@@H]3c4ccc(OP(=O)(O)O)cc4C[C@@H](CCCCCCCCC[S+]([O-])CCCC(F)(F)C(F)(F)F)[C@H]3[C@@H]1CC[C@@H]2O (stereo partly shown) [Example 21, phosphate disodium] . Reported solubility thermodynamic at 24 h? > 5000 µg/mL

---

- Method: Kinetic solubility (Solubility Test Procedure I)
- Experimental setup: phosphate buffer, 25 °C, pH 7.4, aqueous buffer, kinetic from dmso stock
Counter-ions that a name gives are not always drawn.
Metric name: solubility at 4 h (µM)
Numbers only, in µM.

- Compound: "CCOP(=O)(OCC)Oc1ccc2c(c1)C[C@@H](CCCCCCCCC[S+]([O-])CCCC(F)(F)C(F)(F)F)[C@@H]1[C@@H]2CC[C@]2(C)[C@@H](O)CC[C@@H]12 (stereo partly drawn)"
  solubility at 4 h (µM): 0.2
- Compound: "C[C@]12CC[C@@H]3c4ccc(OC(=O)N5CCC(N6CCCCC6)CC5)cc4C[C@@H](CCCCCCCCC[S+]([O-])CCCC(F)(F)C(F)(F)F)[C@H]3[C@@H]1CC[C@@H]2O (stereo partly drawn)"
  solubility at 4 h (µM): 0.1
- Compound: "C[C@]12CC[C@@H]3c4ccc(OC(=O)CN5CCCCC5)cc4C[C@@H](CCCCCCCCC[S+]([O-])CCCC(F)(F)C(F)(F)F)[C@H]3[C@@H]1CC[C@@H]2O (stereo partly drawn) [Example 3, hydrochloride]"
  solubility at 4 h (µM): 3.3
- Compound: "CN1CCN(C(=O)Oc2ccc3c(c2)C[C@@H](CCCCCCCCC[S+]([O-])CCCC(F)(F)C(F)(F)F)[C@@H]2[C@@H]3CC[C@]3(C)[C@@H](O)CC[C@@H]23)CC1 (stereo partly drawn)"
  solubility at 4 h (µM): 0.5
- Compound: "C[C@]12CC[C@@H]3c4ccc(OC(=O)c5ccccc5O)cc4C[C@@H](CCCCCCCCC[S+]([O-])CCCC(F)(F)C(F)(F)F)[C@H]3[C@@H]1CC[C@@H]2O (stereo partly drawn)"
  solubility at 4 h (µM): 2.7

Item under review: C[C@]12CC[C@@H]3c4ccc(O)cc4C[C@@H](CCCCCCCCC[S+]([O-])CCCC(F)(F)C(F)(F)F)[C@H]3[C@@H]1CC[C@@H]2O (stereo partly drawn) . Reported solubility at 4 h? 0.005

---

- Experimental setup: 4 h, pH 7.4
Metric name: Increase in solubility compare to fulvestrant (Fold)
One number for each entry, in Fold.

Below, 3 compounds whose answers are already recorded.
- Compound: "C[C@]12CC[C@@H]3c4ccc(OC(=O)CN5CCCC5)cc4C[C@@H](CCCCCCCCC[S+]([O-])CCCC(F)(F)C(F)(F)F)[C@H]3[C@@H]1CC[C@@H]2O (stereo partly shown)"
  Measured: 3500
- Compound: "C[C@]12CC[C@@H]3c4ccc(OC(=O)CN5CCOCC5)cc4C[C@@H](CCCCCCCCC[S+]([O-])CCCC(F)(F)C(F)(F)F)[C@H]3[C@@H]1CC[C@@H]2O (stereo partly shown)"
  Measured: 32
- Compound: "C[C@]12CC[C@@H]3c4ccc(OC(=O)CCC(=O)O)cc4C[C@@H](CCCCCCCCC[S+]([O-])CCCC(F)(F)C(F)(F)F)[C@H]3[C@@H]1CC[C@@H]2O (stereo partly shown)"
  Measured: 295

In the following, a different compound is considered.
Item under review: CN(C)CC(=O)Oc1ccc2c(c1)C[C@@H](CCCCCCCCC[S+]([O-])CCCC(F)(F)C(F)(F)F)[C@@H]1[C@@H]2CC[C@]2(C)[C@@H](O)CC[C@@H]12 (stereo partly shown) . Reported Increase in solubility compare to fulvestrant (Fold)? 8
